Target: Follistatin-related protein 3 (Homo sapiens)
Test: FSTL3 binders on small-molecule microarrays, primary screen, biochemical, small-molecule microarray, 635 nm fluorescence (AID 1105);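 further: score merges emission near 667 nm and signal to noise per printed spot across three slides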
Conditions: FSTL3 binding, higher = more signal
Below, each entry is listed with its recorded composite z-score.
Enter the number alone.

>  <smiles notation>
COc1cccc([C@H]2Oc3ccc(OC)cc3C(=NO[C@@H]3O[C@H](COC(C)=O)[C@@H](OC(C)=O)[C@H](OC(C)=O)[C@H]3OC(C)=O)[C@@H]2O)c1

>  <measurement target>
Follistatin-related protein 3 (Homo sapiens)

>  <property measured>
composite z-score

>  <test value>
0.0855

$$$$
>  <smiles notation>
CCCCC#C[C@@H]1C=C[C@H](Oc2ccc(C(=O)OC)cc2)[C@@H](COC(=O)OCC)O1

>  <measurement target>
Follistatin-related protein 3 (Homo sapiens)

>  <property measured>
composite z-score

>  <test value>
1.05

$$$$

# input I am curious: what composite z-score value has been reported for O=c1n(Cc2cc3c(cc2Cl)OCO3)c(=O)n2n1CC[C@@H]1C(=NOC[C@@H](O)COCc3ccco3)[C@H]3O[C@H]3[C@@H](O)[C@@H]12 ?
# output 0.596

# input I am curious: what composite z-score value has been reported for COc1ccc(O[C@H]2C=C[C@@H](c3ccccc3)O[C@@H]2CON=C2[C@H]3CCn4c(=O)n(-c5ccccc5)c(=O)n4[C@H]3[C@H](O)[C@@H]3O[C@H]23)cc1 ?
# output 0.584

# input I am curious: what composite z-score value has been reported for COC(=O)[C@@H]1CC[C@H](C)[C@@H](c2ccc(C)cc2)N1C(=O)c1ccc(C=NO[C@H](C)c2cn([C@@H]3COC[C@H]3O)nn2)cc1 ?
# output 0.66

# input I am curious: what composite z-score value has been reported for C[n+]1ccc(-c2ccc(CO)cc2)cc1 ?
# output 1.6

# input I am curious: what composite z-score value has been reported for CC(C)=CCCC(C)=CCON=C1C[C@@H](O)[C@@H](O)[C@@H]2[C@@H]3C(=O)N(c4ccc(F)cc4F)C(=O)[C@@H]3CC[C@@H]12 ?
# output 0.806

# input I am curious: what composite z-score value has been reported for COC(=O)CC=C[C@@H](C)[C@@H](C=NOCC[C@@H]1C=C[C@H](OC(C)=O)[C@@H](COC(C)=O)O1)NS(=O)(=O)c1ccc(C)cc1 ?
# output 0.0237

# input I am curious: what composite z-score value has been reported for CC(C)CON=C1C[C@@H](O)[C@@H](O)[C@@H]2[C@@H]3C(=O)N(c4cccc(Oc5ccccc5)c4)C(=O)[C@@H]3CC[C@@H]12 ?
# output 0.348

# input I am curious: what composite z-score value has been reported for COc1ccc(O[C@H]2C=C[C@@H](c3ccccc3)O[C@@H]2CON=CC[C@@H]2C=C[C@H](OC(C)=O)[C@@H](COC(C)=O)O2)cc1 ?
# output 0.128

# input I am curious: what composite z-score value has been reported for CON=C1[C@H]2CCn3c(=O)n(-c4ccccc4)c(=O)n3[C@H]2[C@H](O)[C@@H]2O[C@H]12 ?
# output 0.488

* * *

Assay: small-molecule binders of probe aLefty1, primary screen, biochemical, small-molecule microarray, 635/667 nm fluorescence (AID 1153);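 further: score merges spot fluorescence with signal-to-noise ratio from the scanned slide images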
Conditions: higher = more signal
Decide by composite z-score: equal to or exceeding -0.01 means Y, less means N.

Please review the entries below; each comes with its answer.
>  <compound>
CCOC(=O)[C@H](CC(C)C)NC(=O)CCC1CC(OC(=O)NCc2cccc3ccccc23)CC2(CCCC(COC(=O)NCCOc3ccccc3)O2)O1 (some centres undefined)

>  <label class>
N

$$$$
>  <compound>
CCOC(=O)[C@H](CC(C)C)NC(=O)CCC1CC(OC(=O)NCc2cccc3ccccc23)CC2(CCCC(COC(=O)NCC3CCCCC3)O2)O1 (some centres undefined)

>  <label class>
Y

$$$$
>  <compound>
Cc1ccc(S(=O)(=O)n2c3ccccc3c3nnc(C(=O)c4ccccc4)nc32)cc1

>  <label class>
N

$$$$
>  <compound>
O=C(NN=C1C[C@@H](O)[C@@H](O)[C@@H]2[C@@H]3C(=O)N(C[C@@H]4CCCO4)C(=O)[C@@H]3CC[C@H]12)OCc1ccccc1

>  <label class>
Y

$$$$
>  <compound>
CO[C@@H]1COC(=O)CC=C[C@H](C)[C@H](OC)COC(=O)[C@H](C)NC(=O)CC=C[C@H]1C

>  <label class>
N

$$$$
>  <compound>
CO[C@H](C1CCCCC1)[C@H](C)C=CCC(=O)OCCCc1ccccc1

>  <label class>
N

$$$$
>  <compound>
CC(C)(C)N1C(=O)[C@H]2[C@H]3[C@H](O)[C@H](O)CC(=NO[C@@H]4O[C@H](CO)[C@@H](O)[C@H](O)[C@H]4O)[C@H]3CC[C@H]2C1=O

>  <label class>
N

$$$$
>  <compound>
C[C@@H]1CC[C@H]2C(=O)O[C@@H](Cc3ccccc3)CN2[C@H]1c1ccc(Br)cc1

>  <label class>
N

$$$$

# input Would you say CCCNC(=O)OC[C@H]1O[C@H](CCON=C(C)CCN2CCc3nc(CC)c(CC)cc3C2)C=C[C@@H]1Oc1ccc(OC)cc1 shows composite z-score at minimum -0.01?
# output N

# input Would you say CON=C[C@@H](C)[C@H](OCc1ccccc1)C(C)C shows composite z-score at minimum -0.01?
# output N

# input Would you say COc1ccc(COC(=O)NN=C2C[C@@H](O)[C@@H](O)[C@@H]3[C@@H]4C(=O)N(Cc5ccccc5)C(=O)[C@@H]4CC[C@H]23)cc1 shows composite z-score at minimum -0.01?
# output Y

# input Would you say CC[C@@H](c1ccccc1)n1c(=O)n2n(c1=O)[C@H]1[C@H](O)[C@@H]3O[C@@H]3C(=NOC[C@@H](O)COCc3ccco3)[C@H]1CC2 shows composite z-score at minimum -0.01?
# output N

# input Would you say O=C(NN=C1C[C@@H](O)[C@@H](O)[C@@H]2[C@@H]3C(=O)N(Cc4ccccc4)C(=O)[C@@H]3CC[C@@H]12)OCc1ccccc1 shows composite z-score at minimum -0.01?
# output Y

# input Would you say C[C@H]1CC[C@H]2C(=O)O[C@H](COc3ccc(C(C)(C)C)cc3)CN2[C@@H]1c1ccc(Br)cc1 shows composite z-score at minimum -0.01?
# output N

* * *

Test: small-molecule binders of probe aNOTCH3, primary screen, biochemical, small-molecule microarray, 635/667 nm fluorescence (AID 1120);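 further: probe is a biotin-tagged antibody raised against NOTCH3 rather than NOTCH3 protein; score merges spot fluorescence near 667 nm with spot signal to noise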
Conditions: higher = more signal
property measured: composite z-score
Enter the number alone.

>  <compound>
C[C@@H]1CC[C@H]2C(=O)O[C@@H](Cc3ccccc3)CN2[C@H]1c1ccc(Br)cc1

>  <test value>
-0.0997

$$$$
>  <compound>
CC(C)CON=C1C[C@@H](O)[C@@H](O)[C@@H]2[C@@H]3C(=O)N(C(C)(C)C)C(=O)[C@@H]3CC[C@H]12

>  <test value>
0.0039

$$$$
>  <compound>
CCOC(=O)[C@H](CC(C)C)NC(=O)CCC1CC(OC(=O)NCCc2ccc(F)cc2)CC2(CCCC(COC(=O)NCC(c3ccccc3)c3ccccc3)O2)O1 (some centres not stated)

>  <test value>
0.0372

$$$$

# input I am curious: what composite z-score value has been reported for Cc1ccc(S(=O)(=O)OC[C@H]2CN3[C@H](c4ccc(Br)cc4)[C@@H](C)CC[C@H]3C(=O)O2)cc1 ?
# output -0.0918

# input I am curious: what composite z-score value has been reported for O=C1CCCC(C2=CCCCC2=O)C1 (configuration not stated) ?
# output 0.152

# input I am curious: what composite z-score value has been reported for CC(C)=CCCC(C)=CCON=C1C[C@@H](O)[C@@H](O)[C@@H]2[C@@H]3C(=O)N(c4ccc(F)cc4F)C(=O)[C@@H]3CC[C@@H]12 ?
# output 0.0459

# input I am curious: what composite z-score value has been reported for CON=Cc1ccc(C(=O)N2[C@H](c3ccc(C)cc3)[C@@H](C)CC[C@H]2C(=O)OC)cc1 ?
# output 0.0257

# input I am curious: what composite z-score value has been reported for CC(C)CON=C1C[C@@H](O)[C@@H](O)[C@@H]2[C@@H]3C(=O)N(C4CCCCC4)C(=O)[C@@H]3CC[C@H]12 ?
# output 0.0021

# input I am curious: what composite z-score value has been reported for COC(=O)CC=C[C@@H](C)[C@@H](C=NOC[C@H]1O[C@H](c2ccccc2)C=C[C@@H]1Oc1ccc(OC)cc1)NS(=O)(=O)c1ccc(C)cc1 ?
# output -0.196

# input I am curious: what composite z-score value has been reported for COC(=O)CC=C[C@@H](C)[C@@H](C=NO[C@@H]1O[C@H](COC(C)=O)[C@@H](OC(C)=O)[C@H](OC(C)=O)[C@H]1OC(C)=O)OC ?
# output 0.0303
